Measured Percent of Binding to Mutant Human CD20 by item
# measurement.target: T1, mutant human CD20 #7 (Y77F, N163D) (human, UniProt P11836 1-297)
# T1 construct: Stably expressed on MG87 cells
# T1 chain: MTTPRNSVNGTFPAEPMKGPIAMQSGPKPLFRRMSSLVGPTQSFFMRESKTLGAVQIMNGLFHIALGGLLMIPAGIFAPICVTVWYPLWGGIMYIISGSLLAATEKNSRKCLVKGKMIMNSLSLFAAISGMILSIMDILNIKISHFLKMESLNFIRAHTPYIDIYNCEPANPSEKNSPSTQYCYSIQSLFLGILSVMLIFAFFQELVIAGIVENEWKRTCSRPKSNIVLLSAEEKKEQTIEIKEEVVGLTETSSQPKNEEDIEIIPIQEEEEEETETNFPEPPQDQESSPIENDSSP
# assay.explanation: FACS, mutant-hCD20 MG87 cells; 100%=best antibody
All answers are understood in %, so give the number only.

Solved entries (count: 2):
3H7-6 (antibody, V domains shown, Fully human IgG, constant region not specified; also called 3H7-6N) VH: EVQLVESGGGLVQPGRSLRLSCAASGFTFYDYAMHWVRQAPGKGLEWVSGISWNSGYIGYADSVKGRFTISRDNAKNSLYLQMNSLRAEDTALYYCAKDNSYGKFYYGLDVWGQGTTVTVSS VL: EIVMTQSPATLSVSPGERTTLSCRASQSVSSNLAWYLQKPGQAPRLLIYGASTRATGIPARFSGSGSGTEFILTISSLQSEDFAVYYCQQYNNWPITFGQGTRLEIK    1
9H4-12 (antibody, V domains shown, Fully human IgG, constant region not specified; also called 9H4-12N) VH: EVQLVESGGGLVQPGRSLRLSCAASGFTFDDYAMHWVRQVPGKGLEWVSGISWNSGSIGYADSVKGRFTISRDNAKNSLYLQMNSLRAEDTALYYCAKDMGYGNYYHYGMDVWGQGTTVTVSS VL: DIVLTQSPATLSLSPGERATLSCRASQSVSSYLAWYQQKPGQAPRLLICDASHRATRIPARFSGSGSGTDFTLTISSLEPEDFAVYYCQQRSNWPITFGQGTRLEIK    2

// next entry
Challenge: Query Percent of Binding to Mutant Human CD20 for 2C11-4 (antibody, V domains shown, Fully human IgG, constant region not specified; also called 2C11-4N) VH: EVQLVESGGGLVQPGRSLRLSCAASGFTFRDYAMHWVRQGPGKGLEWVSGISWNTDYIGYADSVKGRFTISRDNAKNSLYLQMNSLRPEDTALYYCAKDARYGRDNYYGMDVWGQGTTVTVSS VL: EIVLTQSPATLSLSPGERATLSCRASQSVSRYLAWYQQKPGQAPRLLIHDASNRATGIPARFSGSGSGTDFTLTITSLEPEDFVVYYCQQRSDWPITFGQGTRLEIK
Response given: 1
